- study.system: T1, G9a and GLP (Homo sapiens, UniProt Q96KQ7+Q9H9B1)
- T1 sequence (Q96KQ7 2-1210 limits assumed): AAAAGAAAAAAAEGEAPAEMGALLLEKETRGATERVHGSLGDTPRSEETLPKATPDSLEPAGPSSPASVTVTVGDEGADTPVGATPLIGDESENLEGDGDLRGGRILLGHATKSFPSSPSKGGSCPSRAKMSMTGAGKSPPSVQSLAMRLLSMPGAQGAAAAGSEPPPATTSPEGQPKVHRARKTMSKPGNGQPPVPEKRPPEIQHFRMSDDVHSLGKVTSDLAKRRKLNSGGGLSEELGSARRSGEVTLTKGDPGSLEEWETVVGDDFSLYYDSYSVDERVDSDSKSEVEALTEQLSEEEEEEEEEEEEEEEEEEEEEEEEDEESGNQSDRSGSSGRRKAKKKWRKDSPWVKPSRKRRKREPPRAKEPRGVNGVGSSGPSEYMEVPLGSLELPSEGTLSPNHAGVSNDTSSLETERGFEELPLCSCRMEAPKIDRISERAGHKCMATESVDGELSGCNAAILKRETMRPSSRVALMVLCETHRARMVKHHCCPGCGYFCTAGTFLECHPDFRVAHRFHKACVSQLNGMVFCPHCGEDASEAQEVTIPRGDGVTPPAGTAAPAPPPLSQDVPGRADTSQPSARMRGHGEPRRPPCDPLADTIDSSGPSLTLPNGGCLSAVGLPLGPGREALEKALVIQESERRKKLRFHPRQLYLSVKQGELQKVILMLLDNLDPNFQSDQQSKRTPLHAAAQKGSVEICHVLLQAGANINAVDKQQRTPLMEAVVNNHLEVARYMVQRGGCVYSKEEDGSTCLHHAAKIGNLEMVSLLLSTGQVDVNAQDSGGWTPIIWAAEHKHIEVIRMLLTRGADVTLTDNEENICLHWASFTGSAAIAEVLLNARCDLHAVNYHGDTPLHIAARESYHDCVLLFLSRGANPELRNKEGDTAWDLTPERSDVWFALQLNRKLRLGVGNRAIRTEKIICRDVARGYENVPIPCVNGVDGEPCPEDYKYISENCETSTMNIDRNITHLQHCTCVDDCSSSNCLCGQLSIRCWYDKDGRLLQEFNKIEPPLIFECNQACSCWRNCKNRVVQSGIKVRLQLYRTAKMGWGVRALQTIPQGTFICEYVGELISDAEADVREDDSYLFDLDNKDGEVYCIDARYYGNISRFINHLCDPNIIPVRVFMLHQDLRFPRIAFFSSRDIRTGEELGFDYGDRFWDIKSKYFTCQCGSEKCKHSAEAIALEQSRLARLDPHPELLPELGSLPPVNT
- T1 sequence (Q9H9B1 2-1298 limits assumed): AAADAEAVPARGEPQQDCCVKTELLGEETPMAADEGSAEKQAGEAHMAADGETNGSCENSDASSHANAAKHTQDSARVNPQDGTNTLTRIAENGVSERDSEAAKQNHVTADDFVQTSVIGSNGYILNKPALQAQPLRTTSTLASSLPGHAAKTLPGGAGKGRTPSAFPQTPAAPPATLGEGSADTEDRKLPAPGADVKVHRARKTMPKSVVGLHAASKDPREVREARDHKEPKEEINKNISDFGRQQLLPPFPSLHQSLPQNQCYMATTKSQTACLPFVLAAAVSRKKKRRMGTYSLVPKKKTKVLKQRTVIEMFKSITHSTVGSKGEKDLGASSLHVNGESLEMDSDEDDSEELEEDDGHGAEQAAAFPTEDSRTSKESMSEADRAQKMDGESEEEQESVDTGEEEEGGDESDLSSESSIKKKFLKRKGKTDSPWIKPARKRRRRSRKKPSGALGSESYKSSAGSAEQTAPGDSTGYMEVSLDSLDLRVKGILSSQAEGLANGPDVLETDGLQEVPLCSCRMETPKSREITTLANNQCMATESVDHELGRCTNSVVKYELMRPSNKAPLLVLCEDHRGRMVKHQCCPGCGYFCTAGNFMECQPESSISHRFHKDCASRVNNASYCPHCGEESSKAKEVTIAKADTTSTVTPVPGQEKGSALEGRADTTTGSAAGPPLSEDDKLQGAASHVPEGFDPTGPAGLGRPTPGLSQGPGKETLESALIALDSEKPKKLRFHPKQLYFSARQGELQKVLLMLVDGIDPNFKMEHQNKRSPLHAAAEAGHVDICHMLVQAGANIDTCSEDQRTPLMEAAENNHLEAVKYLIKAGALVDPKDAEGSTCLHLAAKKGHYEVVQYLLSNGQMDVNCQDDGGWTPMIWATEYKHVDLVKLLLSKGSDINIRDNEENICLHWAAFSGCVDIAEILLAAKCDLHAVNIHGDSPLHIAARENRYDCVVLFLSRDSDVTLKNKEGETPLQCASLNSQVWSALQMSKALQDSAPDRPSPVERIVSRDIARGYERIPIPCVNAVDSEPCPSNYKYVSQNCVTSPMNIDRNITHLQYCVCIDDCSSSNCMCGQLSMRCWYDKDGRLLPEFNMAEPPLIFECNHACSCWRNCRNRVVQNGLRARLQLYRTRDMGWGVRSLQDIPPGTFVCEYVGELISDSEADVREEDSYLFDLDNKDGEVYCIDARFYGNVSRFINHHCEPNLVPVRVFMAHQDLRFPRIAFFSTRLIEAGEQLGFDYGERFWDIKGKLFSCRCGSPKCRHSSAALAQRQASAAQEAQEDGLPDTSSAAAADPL
- method.summary: Triple SILAC pull-down after UNC0638 treatment of 293T cells, DMSO/UNC0638 ratio of protein captured by 3×MBT;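 also: mass spectrometry (Q-Exactive) SILAC quantitation, DMSO/UNC0638 ratio computed after subtracting 3×MBTD355N mutant pull-down background, only proteins with at least twofold 3×MBT over mutant signal considered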
- Type: cell-based
- Parameters: cells were treated for 24 hours with UNC0638 at 2.5 μM or DMSO vehicle control; endogenous in cells; host or cells: HEK 293T
- condition.parameters: SILAC ratio DMSO/UNC0638 of protein pulled down with 3xMBT; UNC0638 in heavy SILAC media
measure.name: Relative to UNC0638 UNC Heavy (log base 2)
The response must be a number in log base 2 with no trailing unit.

Requested read-out: Relative to UNC0638 UNC Heavy. Entry: HNRNPC (protein, UniProt P07910 2-306, looked up) Heterogeneous nuclear …: ASNVTNKTDPRSMNSRVFIGNLNTLVVKKSDVEAIFSKYGKIVGCSVHKGFAFVQYVNERNARAAVAGEDGRMIAGQVLDINLAAEPKVNRGKAGVKRSAAEMYGSVTEHPSPSPLLSSSFDLDYDFQRDYYDRMYSYPARVPPPPPIARAVVPSKRQRVSGNTSRRGKSGFNSKSGQRGSSKSGKLKGDDLQAIKKELTQIKQKVDSLLENLEKIEKEQSKQAVEMKNDKSEEEQSSSSVKKDETNVKMESEGGADDSAEEGDLLDDDDNEDRGDDQLELIKDDEKEAEEGEDDRDSANGEDDS
0.07
